A collection of compounds and their measured Activity
Test system: Rattus norvegicus
assay_explanation: Antidiuretic activity in fasted and hydrated Wistar rat assessed as compound potency to yield antidiuresis time of 60 mins required for urinary excretion of half the water load at 0.001 to 100 nmol/kg, sc administered immediately after water loading by modified Burn test relative to 1-deamino-8-D-arginine vasopressin
Type: functional, Urine

compound	unit_abbrev	Activity
N=C(N)NCCCC(NC(=O)[C@@H]1CCCN1C(=O)[C@@H]1CSSCCC(=O)N[C@@H](Cc2ccc(O)cc2)C(=O)N[C@@H](Cc2ccccc2)C(=O)N[C@@H](CCC(N)=O)C(=O)N[C@@H](CC(N)=O)C(=O)N1)C(=O)NCC(N)=O (single isomer, unassigned) [DESMOPRESSIN]	%	73.9
N=C(N)NCCC[C@@H](NC(=O)[C@@H]1CCCN1C(=O)[C@@H]1CSSCCC(=O)N[C@H](C(c2ccccc2)c2ccccc2)C(=O)N[C@@H](Cc2ccccc2)C(=O)N[C@@H](CCC(N)=O)C(=O)N[C@@H](CC(N)=O)C(=O)N1)C(=O)NCC(N)=O	%	200

###

Test system: Rattus norvegicus
assay_explanation: Antidiuretic activity in fasted and hydrated Wistar rat assessed as compound potency to yield antidiuresis time of 60 mins required for urinary excretion of half the water load at 0.001 to 100 nmol/kg, sc administered immediately after water loading by modified Burn test relative to 1-deamino-8-D-arginine vasopressin
Type: functional, Urine
Where a SMILES comes first, the peptide text is derived from it. Bridges are numbered along the chain shown (N, C = ends). [ ]: non-standard residue; d: D form. Aic = NC1(C(=O)O)Cc2ccccc2C1
A collection of compounds and their measured Activity
measured_endpoint: Activity (%)

compound	unit_abbrev	meas_value
CC(C)[C@@H]1NC(=O)[C@H](Cc2ccccc2)NC(=O)[C@@H](C(c2ccccc2)c2ccccc2)NC(=O)CCSSC[C@@H](C(=O)N2CCC[C@H]2C(=O)N[C@H](CCCNC(=N)N)C(=O)NCC(N)=O)NC(=O)[C@H](CC(N)=O)NC1=O	%	200
N=C(N)NCCC[C@H](NC(=O)[C@@H]1CCCN1C(=O)[C@@H]1CSSC[C@H](N)C(=O)NC2(Cc3ccccc3C2)C(=O)N[C@@H](Cc2ccccc2)C(=O)N[C@@H](CCC(N)=O)C(=O)N[C@@H](CC(N)=O)C(=O)N1)C(=O)NCC(N)=O (H-C[Aic]FQNCPRG-NH2; disulfide 1-6)	%	10
NC(=O)CC[C@@H]1NC(=O)[C@H](Cc2ccccc2)NC(=O)[C@H](Cc2ccc(O)cc2)NC(=O)[C@@H](N)CSSC[C@@H](C(=O)N2CCC[C@H]2C(=O)N[C@H](CCCN=C(N)N)C(=O)NCC(N)=O)NC(=O)[C@H](CC(N)=O)NC1=O	%	23.2
N=C(N)NCCC[C@@H](NC(=O)[C@@H]1CCCN1C(=O)[C@@H]1CSSC[C@H](N)C(=O)N[C@@H](C(c2ccccc2)c2ccccc2)C(=O)N[C@@H](Cc2ccccc2)C(=O)N[C@@H](CCC(N)=O)C(=O)N[C@@H](CC(N)=O)C(=O)N1)C(=O)NCC(N)=O	%	0.7
N=C(N)NCCC[C@H](NC(=O)[C@@H]1CCCN1C(=O)[C@@H]1CSSCCC(=O)N[C@H](C(c2ccccc2)c2ccccc2)C(=O)N[C@@H](Cc2ccccc2)C(=O)N[C@@H](CCC(N)=O)C(=O)N[C@@H](CC(N)=O)C(=O)N1)C(=O)NCC(N)=O	%	100
